Numbers sourced from patent US7511144B2.

Target: Human MMP3 (Homo sapiens, UniProt P08254)
Sequence (P08254 100-272 limits assumed): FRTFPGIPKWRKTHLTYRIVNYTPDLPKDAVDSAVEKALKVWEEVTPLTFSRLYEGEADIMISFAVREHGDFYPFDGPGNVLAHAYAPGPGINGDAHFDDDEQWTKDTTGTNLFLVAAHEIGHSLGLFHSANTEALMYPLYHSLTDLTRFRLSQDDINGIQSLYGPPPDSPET
pIC50: −log10 of the molar value.
pIC50: recorded values
value-kind: pIC50

>>> observed_measurement("Cc1cc(COc2ccc(S(=O)(=O)CC(C3CCC4(CC3)OCCO4)N(O)C=O)cc2)c2ccccc2n1 (stereo not shown)")
6.55
>>> observed_measurement("COCOC1CCC(C)(C(CS(=O)(=O)c2ccc(OCc3cc(C)nc4ccccc34)cc2)N(O)C=O)CC1 (stereo not shown)")
5.89
>>> observed_measurement("CCC(CC)CN1CCC(=CC(CS(=O)(=O)c2ccc(OCc3cc(C)nc4ccccc34)cc2)N(O)C=O)CC1 (stereo not shown)")
5.52
>>> observed_measurement("Cc1cc(COc2ccc(S(=O)(=O)CC(N(O)C=O)C3(C)CCC(O)CC3)cc2)c2ccccc2n1 (stereo not shown)")
5.49

* * *

pIC50: −log10 of the molar value.
// endpoint pIC50 / system Human MMP3 (Homo sapiens, UniProt P08254)
value-kind: pIC50

>>> observed_measurement("Cc1cc(COc2ccc(S(=O)(=O)CC(C3CCCN(C(=O)c4ccccc4)C3)N(O)C=O)cc2)c2ccccc2n1 (stereo not shown) [Example I-131]")
6.70
>>> observed_measurement("CC(=O)N(O)C(C=C1CCSCC1)CS(=O)(=O)c1ccc(OCc2cc(C)nc3ccccc23)cc1 (stereo not shown) [Example I-126]")
4.92
>>> observed_measurement("C[C@@H]1O[C@@H](CO)CN(S(=O)(=O)c2ccc(OCc3ccc(F)cc3)cc2)[C@H]1C(=O)NO [compound 2, reference compound]")
7.40
>>> observed_measurement("Cc1cc(COc2ccc(S(=O)(=O)CC(C3CCCN(C(=O)OC(C)(C)C)C3)N(O)C=O)cc2)c2ccccc2n1 (stereo not shown) [Example I-72]")
6.15
>>> observed_measurement("Cc1cccc(CCC(CS(=O)(=O)c2ccc(OCc3cc(C)nc4ccccc34)cc2)N(O)C=O)n1 (stereo not shown) [Example I-129]")
5.51
>>> observed_measurement("Cc1cc(COc2ccc(S(=O)(=O)CC(C=C3CCC(=NO)CC3)N(O)C=O)cc2)cc(C)n1 (stereo not shown) [Example I-111]")
4.52
>>> observed_measurement("Cc1cc(COc2ccc(S(=O)(=O)CC(N(O)C=O)C3(C)CCOCC3)cc2)c2ccccc2n1 (stereo not shown) [Example I-60]")
5.60

* * *

Molecular target: Human MMP17 (Homo sapiens)
Sequence (Q9ULZ9 126-300 limits assumed): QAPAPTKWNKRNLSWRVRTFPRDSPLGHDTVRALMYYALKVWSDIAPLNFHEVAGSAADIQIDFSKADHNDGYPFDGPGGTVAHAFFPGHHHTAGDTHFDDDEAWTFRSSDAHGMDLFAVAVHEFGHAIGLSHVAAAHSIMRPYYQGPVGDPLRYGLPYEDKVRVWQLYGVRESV
Hi! Could you tag entries with IC50 below 7 µM as condition met, and those at or above as condition not met? Much appreciated.

>>> category("Cc1cncc(C(CS(=O)(=O)c2ccc(OCc3cc(C)nc4ccccc34)cc2)N(O)C=O)c1 (stereo not shown)")
"condition met"
>>> category("Cc1cccc(C(CS(=O)(=O)c2ccc(OCc3cc(C)nc4ccc(F)cc34)cc2)N(O)C=O)n1 (stereo not shown)")
"condition not met"
>>> category("Cc1cc(COc2ccc(S(=O)(=O)CC(C=C3CCOCC3)N(O)C=O)cc2)c2ccccc2n1 (single isomer, unassigned)")
"condition not met"
>>> category("Cc1ccc(C(CS(=O)(=O)c2ccc(OCc3cc(C)nc4ccccc34)cc2)N(O)C=O)cn1 (stereo not shown)")
"condition met"
>>> category("CCC(CC)C(=O)N1CCC(CC(CS(=O)(=O)c2ccc(OCc3cc(C)nc4ccccc34)cc2)N(O)C=O)CC1 (stereo not shown)")
"condition met"
>>> category("Cc1cc(COc2ccc(S(=O)(=O)CC(CC3CCN(S(C)(=O)=O)CC3)N(O)C=O)cc2)c2ccccc2n1 (stereo not shown)")
"condition met"
>>> category("Cc1cc(COc2ccc(S(=O)(=O)CC(CN3CCN(CC(C)C)CC3)N(O)C=O)cc2)c2ccccc2n1 (stereo not shown)")
"condition met"
>>> category("Cc1cc(COc2ccc(S(=O)(=O)CC(C3CCCN(C(=O)OC(C)(C)C)C3)N(O)C=O)cc2)c2ccccc2n1 (stereo not shown)")
"condition met"
>>> category("COc1ccc(CCC(CS(=O)(=O)c2ccc(OCc3cc(C)nc4ccccc34)cc2)N(O)C=O)cc1 (stereo not shown)")
"condition met"
>>> category("Cc1cc(COc2ccc(S(=O)(=O)CC(C=C3CCSCC3)N(O)C(N)=O)cc2)c2ccccc2n1 (stereo not shown)")
"condition not met"
>>> category("Cc1cc(COc2ccc(S(=O)(=O)CC(CC3CCOCC3)N(O)C=O)cc2)c2ccccc2n1 (stereo not shown)")
"condition met"
>>> category("COCc1cc(COc2ccc(S(=O)(=O)CC(C=C3CCC4(CC3)OCCO4)N(O)C=O)cc2)cc(C)n1 (stereo not shown)")
"condition not met"
>>> category("Cc1cc(Cl)cc(COc2ccc(S(=O)(=O)CC(C3CCC4(CC3)OCCO4)N(O)C=O)cc2)c1 (stereo not shown)")
"condition met"
>>> category("Cc1ccccc1C(CS(=O)(=O)c1ccc(OCc2ccc3ccccc3n2)cc1)N(O)C=O (stereo not shown)")
"condition not met"
>>> category("Cc1cc(C)cc(COc2ccc(S(=O)(=O)CC(C=C3CCC(=O)CC3)N(O)C=O)cc2)c1 (stereo not shown)")
"condition not met"

* * *

Biological target: Human MMP1 (Homo sapiens, UniProt P03956)
Construct: purchased Calbiochem 444208
Sequence (P03956 100-469): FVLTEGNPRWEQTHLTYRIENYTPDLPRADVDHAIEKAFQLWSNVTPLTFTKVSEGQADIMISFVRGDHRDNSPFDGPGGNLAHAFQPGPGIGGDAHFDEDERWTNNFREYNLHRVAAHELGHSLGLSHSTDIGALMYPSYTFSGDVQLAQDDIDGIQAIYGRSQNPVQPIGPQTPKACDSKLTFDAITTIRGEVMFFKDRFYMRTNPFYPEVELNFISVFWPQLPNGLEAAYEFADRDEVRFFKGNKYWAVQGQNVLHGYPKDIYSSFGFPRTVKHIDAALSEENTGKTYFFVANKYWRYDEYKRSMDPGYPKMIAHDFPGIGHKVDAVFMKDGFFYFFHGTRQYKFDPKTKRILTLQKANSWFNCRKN
Assay: MMP1 inhibition experiment
Format: biochemical
Conditions: read-out: IC50 value MMP-1
value-kind: IC50 (µM)

>>> observed_measurement("Cc1cc(COc2ccc(S(=O)(=O)CC(c3ccccc3C)N(O)C=O)cc2)c2cccc(F)c2n1 (centres unmarked)")
34
>>> observed_measurement("COc1ccc(C(=O)N2CCN(CC(CS(=O)(=O)c3ccc(OCc4cc(C)nc5ccccc45)cc3)N(O)C=O)CC2)cc1 (centres unmarked)")
70
>>> observed_measurement("Cc1cc(Cl)cc(COc2ccc(S(=O)(=O)CC(C3CCC4(CC3)OCCO4)N(O)C=O)cc2)c1 (centres unmarked)")
50
>>> observed_measurement("Cc1cc(COc2ccc(S(=O)(=O)CC(C=C3CCN(C(=O)OC(C)(C)C)CC3C)N(O)C=O)cc2)c2ccccc2n1 (centres unmarked)")
80
>>> observed_measurement("Cc1cc(COc2ccc(S(=O)(=O)CC(CC3CCN(C(=O)c4ccccc4)CC3)N(O)C=O)cc2)c2ccccc2n1 (centres unmarked)")
60
>>> observed_measurement("C=C1CCC(C(CS(=O)(=O)c2ccc(OCc3cc(C)cc(OC)c3)cc2)N(O)C=O)CC1 (centres unmarked)")
43
>>> observed_measurement("Cc1cc(COc2ccc(S(=O)(=O)CC(C=C3CCSCC3)N(O)C=O)cc2)c2ccccc2n1 (centres unmarked)")
43
>>> observed_measurement("C=C1CCC(C(CS(=O)(=O)c2ccc(OCc3cc(C)cc(C)c3)cc2)N(O)C=O)CC1 (centres unmarked)")
33
>>> observed_measurement("Cc1cc(COc2ccc(S(=O)(=O)CC(CCc3cccnc3)N(O)C=O)cc2)c2ccccc2n1 (centres unmarked)")
70
>>> observed_measurement("Cc1cc(COc2ccc(S(=O)(=O)CC(CC3CCC(=O)CC3)N(O)C=O)cc2)cc(C)n1 (centres unmarked)")
60
>>> observed_measurement("Cc1cc(COc2ccc(S(=O)(=O)CC(C3CCN(C(=O)OC(C)(C)C)CC3)N(O)C=O)cc2)c2ccccc2n1 (centres unmarked)")
80
>>> observed_measurement("COc1ccc(CCC(CS(=O)(=O)c2ccc(OCc3cc(C)nc4ccccc34)cc2)N(O)C=O)cc1 (centres unmarked)")
50

* * *

IC50: recorded values
Target: Human MMP13 (Homo sapiens, UniProt P45452)
Construct: purchased Chemicon CC068
Assay: MMP13 inhibition experiment
Assay type: biochemical
Details: concentration required for 50% inhibition of enzyme activity; read-out: IC50 value MMP-13
value-kind: IC50 (µM)

>>> observed_measurement("COCc1cc(COc2ccc(S(=O)(=O)CC(c3ccccc3C)N(O)C=O)cc2)cc(C)n1 (stereo not shown)")
28
>>> observed_measurement("Cc1cc(COc2ccc(S(=O)(=O)CC(CC3CCC(=O)CC3)N(O)C=O)cc2)cc(C)n1 (stereo not shown)")
2.3
>>> observed_measurement("COc1ccc(C(=O)N2CCN(CC(CS(=O)(=O)c3ccc(OCc4cc(C)nc5ccccc45)cc3)N(O)C=O)CC2)cc1 (stereo not shown)")
23
>>> observed_measurement("CC(=C1CCOCC1)C(CS(=O)(=O)c1ccc(OCc2cc(C)nc3ccccc23)cc1)N(O)C=O (stereo not shown)")
30

* * *

IC50: recorded values
Target: Human MMP8 (Homo sapiens, UniProt P22894)
Sequence (P22894 101-467): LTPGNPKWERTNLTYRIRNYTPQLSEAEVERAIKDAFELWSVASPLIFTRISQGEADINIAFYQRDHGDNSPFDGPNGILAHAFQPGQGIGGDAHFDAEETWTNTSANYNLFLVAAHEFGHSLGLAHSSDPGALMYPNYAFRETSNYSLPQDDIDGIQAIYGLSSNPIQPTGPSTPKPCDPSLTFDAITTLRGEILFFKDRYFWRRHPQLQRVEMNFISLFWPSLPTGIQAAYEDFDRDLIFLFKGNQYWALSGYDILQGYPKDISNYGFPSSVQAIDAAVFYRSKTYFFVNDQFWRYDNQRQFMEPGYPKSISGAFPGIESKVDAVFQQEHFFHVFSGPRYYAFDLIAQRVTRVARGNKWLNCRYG
value-kind: IC50 (µM)

>>> observed_measurement("Cc1cc(COc2ccc(S(=O)(=O)CC(C=C3CCN(Cc4ccccc4)CC3)N(O)C=O)cc2)c2ccccc2n1 (stereo not drawn) [Example I-45]")
5
>>> observed_measurement("CCC(CC)C(=O)N1CCCC(C(CS(=O)(=O)c2ccc(OCc3cc(C)nc4ccccc34)cc2)N(O)C=O)C1 (stereo not drawn) [Example I-130]")
7
>>> observed_measurement("Cc1cc(COc2ccc(S(=O)(=O)CC(CC3CCC(=NO)CC3)N(O)C=O)cc2)c2ccccc2n1 (stereo not drawn) [Example I-27]")
8
>>> observed_measurement("CC(=O)N1CCCC(C(CS(=O)(=O)c2ccc(OCc3cc(C)nc4ccccc34)cc2)N(O)C=O)C1 (stereo not drawn) [Example I-133]")
18
>>> observed_measurement("COCc1cc(COc2ccc(S(=O)(=O)CC(CC3CCC(=NO)CC3)N(O)C=O)cc2)cc(C)n1 (stereo not drawn) [Example I-122]")
14
>>> observed_measurement("CCC(CC)CN1CCC(=CC(CS(=O)(=O)c2ccc(OCc3cc(C)nc4ccccc34)cc2)N(O)C=O)CC1 (stereo not drawn) [Example I-44]")
42
>>> observed_measurement("COc1ccc(C(=O)N2CCN(CC(CS(=O)(=O)c3ccc(OCc4cc(C)nc5ccccc45)cc3)N(O)C=O)CC2)cc1 (stereo not drawn) [Example I-54]")
42
>>> observed_measurement("Cc1cc(COc2ccc(S(=O)(=O)CC(C3CCOCC3)N(O)C=O)cc2)c2ccccc2n1 (stereo not drawn) [Example I-49]")
9
>>> observed_measurement("CCC(CC)C(=O)N1CCC(=CC(CS(=O)(=O)c2ccc(OCc3cc(C)nc4ccccc34)cc2)N(O)C=O)C(C)C1 (stereo not drawn) [Example I-63]")
60
>>> observed_measurement("Cc1cc(COc2ccc(S(=O)(=O)CC(c3ccccc3C)N(O)C=O)cc2)c2cc(F)ccc2n1 (stereo not drawn) [Example I-79]")
73
>>> observed_measurement("Cc1cc(COc2ccc(S(=O)(=O)CC([C@H]3CSC(=O)N3C)N(O)C=O)cc2)c2ccccc2n1 (stereo partly drawn) [Example I-136]")
13
>>> observed_measurement("COc1ccc(CCC(CS(=O)(=O)c2ccc(OCc3cc(C)nc4ccccc34)cc2)N(O)C=O)cc1 (stereo not drawn) [Example I-35]")
35
>>> observed_measurement("O=CON=C1CCC(=CC(CS(=O)(=O)c2ccc(OCc3ccc4ccccc4n3)cc2)N(O)C=O)CC1 (stereo not drawn) [Example I-85]")
70
>>> observed_measurement("Cc1cc(COc2ccc(S(=O)(=O)CC(N(O)C=O)C3(C)CCC(O)CC3)cc2)c2ccccc2n1 (stereo not drawn) [Example I-137]")
23
